systemTested: F1F0-ATPase (Bos taurus)
assayComment: Inhibition of ATP synthesis by the F1F0-ATPase
Assay type: biochemical
runParameters: IC40: concentration for 40% inhibition
endpointLabel: ATP Synthesis (IC40 μM)

-- ask // query ATP Synthesis (IC40 μM) value for entry Cc1cccc(NC(=NC(=O)c2cccc(Cl)c2)NCCc2c[nH]cn2)c1 [III-9]
-- reply >10 µM

-- ask Repeat for the following compound: O=C(N=C(NCCc1c[nH]cn1)Nc1ccc(F)cc1)c1cccc(Cl)c1 [III-16]
-- reply >20 µM

-- ask Repeat for the following compound: O=C(/N=C(/NCCc1cn[nH]c1)Nc1ccc(-c2ccccc2)cc1)c1cccc(Cl)c1 [IV-4]
-- reply <10 µM

-- ask Repeat for the following compound: C[C@@H](Cc1c[nH]cn1)N/C(=N/C(=O)c1cccc(Cl)c1)Nc1ccc(-c2ccccc2)cc1 [IV-5]
-- reply <10 µM

-- ask Repeat for the following compound: CN(C)S(=O)(=O)c1ccc(NC(=NC(=O)c2cccc(Cl)c2)NCCc2cnc[nH]2)cc1 [III-39]
-- reply >20 µM

Value source: patent US8324258B2
